# TARGET UNDER TEST: human FXR (NR1H4) (Homo sapiens, UniProt Q96RI1)
# Sequence (Q96RI1 whole entry, the tested form may be a part): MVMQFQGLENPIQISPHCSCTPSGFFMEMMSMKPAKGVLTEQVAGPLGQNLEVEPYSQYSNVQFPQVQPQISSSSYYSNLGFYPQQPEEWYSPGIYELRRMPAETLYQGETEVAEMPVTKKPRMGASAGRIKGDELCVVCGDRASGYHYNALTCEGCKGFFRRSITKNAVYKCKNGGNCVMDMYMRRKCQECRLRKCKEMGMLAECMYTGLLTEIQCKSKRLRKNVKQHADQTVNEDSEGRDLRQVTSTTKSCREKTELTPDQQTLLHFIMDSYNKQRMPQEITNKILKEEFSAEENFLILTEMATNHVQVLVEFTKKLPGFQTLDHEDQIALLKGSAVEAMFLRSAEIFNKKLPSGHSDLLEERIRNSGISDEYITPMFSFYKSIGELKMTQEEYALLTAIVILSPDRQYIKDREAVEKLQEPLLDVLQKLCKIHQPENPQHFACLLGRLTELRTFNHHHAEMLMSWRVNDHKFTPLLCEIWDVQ
# TEST METHOD NOTES: Human FXR (NR1H4) Assay: Gal4 promoter driven luciferase reporter transactivation in CHO cells (Indigo Bioscience kit IB00601)
# Assay type: cell-based
# CONDITION DETAILS: potency range, Human FXR (NR1H4) reporter assay in CHO cells; read-out: EC50
pEC50: −log10 of the molar value.
For each record, write down the corresponding pEC50.

Below are worked cases with known answers.
### Prompt Fill in the blank: the reported pEC50 of O=C(Nc1ccc(-c2nnn[nH]2)cc1)N1C2CCC1CC(OCc1c(-c3c(Cl)cccc3Cl)noc1C1CC1)C2 (stereo not drawn) [Example 701] is ____.
### Response 6.00 to 7.00

### Prompt Lookup COC(=O)c1ccc2c(c1)N(C(=O)N1C3CCC1CC(OCc1c(-c4ccccc4OC(F)(F)F)noc1C1CC1)C3)CC2 (stereo not drawn) [Example 589]
### Response < 6.00

### Prompt Lookup CN(C)S(=O)(=O)NC(=O)c1cccc(NC(=O)N2C3CCC2CC(OCc2c(-c4ccccc4OC(F)(F)F)noc2C2CC2)C3)c1 (stereo not drawn) [Example 265]
### Response 6.00 to 7.00

### Prompt Lookup O=C(O)c1ccc(NC(=O)N2C3CCC2CC(OCc2c(-c4c(Cl)cccc4Cl)noc2C2CC2)C3)c(OC(F)(F)F)c1 (stereo not drawn) [Example 717]
### Response 6.00 to 7.00

### Prompt Lookup CCOC(=O)c1ccc2nc(NC(=O)N3C4CCC3CC(OCc3c(-c5c(Cl)cccc5Cl)noc3C3CC3)C4)sc2c1 (stereo not drawn) [Example 804]
### Response 7.00 to 8.00

Need pEC50 for each of these compounds.
1. CN1CC=C(c2cccc(NC(=O)N3C4CCC3CC(OCc3c(-c5c(Cl)cccc5Cl)noc3C3CC3)C4)c2)CC1 (stereo not drawn) [Example 715]
2. O=C(Nc1cc(-c2cccnc2)cc(C(F)(F)F)c1)N1C2CCC1CC(OCc1c(-c3c(Cl)cccc3Cl)noc1C1CC1)C2 (stereo not drawn) [Example 14]
3. CCOc1cc(C(=O)O)ccc1NC(=O)N1C2CCC1CC(NCc1c(-c3c(Cl)cccc3Cl)noc1C1CC1)C2 (stereo not drawn) [Example 830]
4. O=C(Nc1cccc(F)c1)N1C2CCC1CC(OCc1c(-c3c(Cl)cccc3Cl)noc1C1CC1)C2 (stereo not drawn) [Example 1]

### Response
1: 7.00 to 8.00; 2: > 8.00; 3: > 8.00; 4: > 8.00
